# TGT: human GABA A α5β3γ2 receptor (Homo sapiens (Human), UniProt P18507+P31644)
# PROCEDURE_TEXT: [3H]flumazenil competition radioligand binding assay, human GABA A α5β3γ2 receptors in HEK293 cells
# CONDITION_SET: HEK293 cells expressing human receptors (transiently transfected); 0.5 nM [3H]flumazenil; means of two determinations; read-out: hKi GABA Aα5
Known pKi of a selection of compounds
pKi (log units): -log10 of the concentration in mol/L.

Field: example entries. Status: answers known.
Cc1nnn(-c2ccc(F)cc2)c1COc1cc(C(=O)NC2CCOCC2)n(C)n1 [Example 3] | 7.80
Cc1nc(/C=C/c2c(C)nnn2-c2ccc(F)cc2)sc1C(=O)NC(C)C [Example 9] | 8.17
Cc1nc(/C=C/c2c(-c3ccccn3)nnn2C)sc1C(=O)NC(C)C [Example 10] | 7.68
Cn1nnc(-c2ccc(F)cc2)c1COc1cc(C(=O)NC2CCOCC2)on1 [Example 1] | 7.54
Cc1nnn(-c2ccc(F)cc2)c1COc1cc(C(=O)NC2(C)COC2)n(C)n1 [Example 5] | 7.36

Q: Report pKi for Cc1nnn(-c2ccc(F)cc2)c1COc1cc(C(=O)NN2CCOCC2)n(C)n1 [Example 4] tested on human GABA A α5β3γ2 receptor (Homo sapiens (Human), UniProt P18507+P31644).
A: 7.65

Q: Item: Cn1nc(OCc2c(-c3ccc(F)cc3)nnn2C)cc1C(=O)NC1CCOCC1 [Example 2]
A: 7.34

Q: Item: Cc1nc(/C=C/c2c(-c3ccc(F)cc3)nnn2C)sc1C(=O)NC(C)C [Example 6]
A: 7.95
